assay: Binding affinity to human BPTF BRD assessed as dissociation constant
measurement kind: pKd
Give bare numbers, as −log10 of the molar value.

Give the reported value of pKd for this record: CCCNc1cc(-c2ccc(OCCCN3CCN(C(=O)COc4cccc5c4C(=O)N(C4CCC(=O)NC4=O)C5=O)CC3)c(C#N)c2)nc(S(C)(=O)=O)n1 (stereo unspecified)
6.51

---

target: Protein cereblon/Nucleosome-remodeling factor subunit BPTF (Homo sapiens, UniProt Q12830+Q96SW2); assay: PROTAC activity at human BPTF/CRBN assessed as ubiquitination level by measuring unmodified protein by fluorescence-coupled CRBN-based ubiquitination assay
Sequence (Q96SW2 whole entry, looked up, other chains not shown): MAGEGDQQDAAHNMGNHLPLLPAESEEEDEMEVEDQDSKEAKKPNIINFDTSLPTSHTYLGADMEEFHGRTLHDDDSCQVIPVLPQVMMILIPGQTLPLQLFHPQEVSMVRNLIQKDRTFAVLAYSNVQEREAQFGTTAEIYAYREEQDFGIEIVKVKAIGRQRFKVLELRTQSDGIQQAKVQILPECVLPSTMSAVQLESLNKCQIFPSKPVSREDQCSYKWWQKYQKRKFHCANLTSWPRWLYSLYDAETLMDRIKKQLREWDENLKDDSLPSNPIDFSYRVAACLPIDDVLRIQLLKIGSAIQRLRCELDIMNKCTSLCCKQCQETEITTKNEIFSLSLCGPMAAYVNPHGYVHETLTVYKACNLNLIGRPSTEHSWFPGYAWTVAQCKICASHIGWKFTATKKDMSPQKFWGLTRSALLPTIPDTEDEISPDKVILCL
Active and inactive are the calls of the source. The rule behind the calls is not given here.
Returns: one label drawn from 1 for active, -1 for inactive

Some entries whose results are on file:
{"columns": ["compound", "class name"],
 "data": [
  ["CCCNc1cc(-c2ccc(OCCCN3CCN(C(=O)COc4cccc5c4C(=O)N(C4CCC(=O)N(C)C4=O)C5=O)CC3)c(C#N)c2)nc(S(C)(=O)=O)n1 (centres undefined)", -1],
  ["CCCNc1cc(-c2ccc(OCCCN3CCN(C(=O)COc4cccc5c4C(=O)N(C4CCC(=O)NC4=O)C5=O)CC3)c(C#N)c2)nc(S(C)(=O)=O)n1 (centres undefined)", 1],
  ["CCCNc1cc(-c2ccc(OCCCN3CCN(C(=O)C4CN(c5cccc6c5C(=O)N(C5CCC(=O)NC5=O)C6=O)C4)CC3)c(C#N)c2)nc(S(C)(=O)=O)n1 (centres undefined)", 1]
]}

Now consider a different compound.
Recorded test call requested for CCCNc1cc(-c2ccc(OCCCN3CCN(C(=O)C4CCN(c5cccc6c5C(=O)N(C5CCC(=O)NC5=O)C6=O)CC4)CC3)c(C#N)c2)nc(S(C)(=O)=O)n1 (centres undefined)
1
